assay: in vivo; conditions: female, mouse, po, 50 mg/kg
Counter-ions that a name gives are not always drawn.
Would you kindly list Cmax for each of these compounds?

NCc1ncc(S(=O)(=O)c2cc(C(=O)O)cc(-c3ccccc3)c2)s1 [Example 126, Ditrifluoroacetate]	100 µM

I would be grateful if you could provide Cmax for each of the following entries.
1. Cc1ccc(-c2cc(S(=O)(=O)c3ccc(CN)s3)ccc2S(C)(=O)=O)cc1 [Example 82, Hydrochloride]
2. Cn1cc(-c2cc(C(=O)O)cc(S(=O)(=O)c3cnc(CN)s3)c2)cn1 [Example 150, Trihydrochloride]

Reply text:
["9.4 µM", "10 µM"]

---

biological target: UniProtKB Q9Y4K0; experiment: LOXL2 enzyme activity assay (ROS-Glo; pre-incubation 20 min Method (a), 60 min Method (b), 20 h Method (c)); assay type: biochemical; conditions: read-out: LOXL2 IC50 b) 1 hr; pre-incubation 1 hr, Method (b)
Structures can show the parent of a compound that is named as a salt.
Kindly supply the reported pIC50 values for the records listed here.
Numbers only, as −log10 of the molar value.

CN(C)C(=O)c1cc(-c2cnn(C)c2)cc(S(=O)(=O)c2csc(CN)n2)c1 [Example 164, Hydrochloride]	5.92
Cn1cc(-c2cc(C(=O)N3CC[C@@H](O)C3)cc(S(=O)(=O)c3cnc(CN)s3)c2)cn1 [Example 156, tri hydrochloride]	6.70
CCNC(=O)c1cc(-c2ccccc2)cc(S(=O)(=O)c2cnc(CN)s2)c1 [Example 151, Dihydrochloride]	7.11
CS(=O)(=O)c1cc(S(=O)(=O)c2ccc(CN)s2)ccc1-c1ccccc1 [Example 129, Hydrochloride]	6.32
Cn1c(S(=O)(=O)c2ccc3ccccc3c2)cnc1CN [Example 123, Dihydrochloride]	4.72

Provide each entry's pIC50 from the list below.
1. NCc1ncc(S(=O)(=O)c2cc(C(=O)NCCO)cc(-c3ccccc3)c2)s1 [Example 152, Dihydrochloride]
2. NCc1ccc(S(=O)(=O)c2cccc(S(=O)(=O)N3CCCC3c3ccccc3)c2)s1 (centres unmarked) [Example 124, Hydrochloride]
3. COCn1cc(-c2cc(OC)cc(S(=O)(=O)c3cnc(CN)s3)c2)cn1 [Example 141, tri-trifluoroacetate]
4. CN(C)C(=O)c1cc(-c2ccccc2)cc(S(=O)(=O)c2csc(CN)n2)c1 [Example 162, Hydrochloride]
5. COc1cc(-c2cn[nH]c2)cc(S(=O)(=O)c2cnc(CN)s2)c1 [Example 142, tri-trifluoroacetate]
6. CCNC(=O)c1cc(-c2cnn(C)c2)cc(S(=O)(=O)c2cnc(CN)s2)c1 [Example 154]

Reply text:
1. 6.25
2. 6.92
3. 7.14
4. 6.51
5. 6.39
6. 6.82

---

biological target: LOXL2 (Homo sapiens (Human)); assay: LOXL2 enzyme activity assay (ROS-Glo; pre-incubation 20 min Method (a), 60 min Method (b), 20 h Method (c)); format: biochemical; conditions: pre-incubation 1 hr, Method (b)
Sequence (Q9Y4K0 26-774, species assumed): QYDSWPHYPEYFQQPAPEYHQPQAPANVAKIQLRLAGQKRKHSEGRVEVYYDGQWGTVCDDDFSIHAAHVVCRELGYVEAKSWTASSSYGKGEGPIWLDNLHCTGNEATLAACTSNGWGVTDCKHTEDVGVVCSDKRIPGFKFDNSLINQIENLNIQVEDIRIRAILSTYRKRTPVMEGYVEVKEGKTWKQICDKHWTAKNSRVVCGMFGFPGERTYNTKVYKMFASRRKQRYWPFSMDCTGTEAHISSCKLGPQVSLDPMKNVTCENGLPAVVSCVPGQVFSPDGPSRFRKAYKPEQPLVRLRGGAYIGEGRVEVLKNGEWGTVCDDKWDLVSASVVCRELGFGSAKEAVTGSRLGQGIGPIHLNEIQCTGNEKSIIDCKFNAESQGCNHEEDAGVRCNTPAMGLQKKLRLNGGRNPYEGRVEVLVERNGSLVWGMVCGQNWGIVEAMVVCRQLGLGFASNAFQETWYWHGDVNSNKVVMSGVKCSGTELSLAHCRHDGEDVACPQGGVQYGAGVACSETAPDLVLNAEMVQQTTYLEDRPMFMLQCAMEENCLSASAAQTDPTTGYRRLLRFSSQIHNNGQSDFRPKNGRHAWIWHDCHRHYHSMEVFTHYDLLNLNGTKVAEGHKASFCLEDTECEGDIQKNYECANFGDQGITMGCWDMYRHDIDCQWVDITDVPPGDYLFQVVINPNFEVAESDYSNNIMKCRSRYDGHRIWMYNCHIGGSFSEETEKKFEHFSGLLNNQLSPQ
Counter-ions that a name gives are not always drawn.
EXPERIMENTAL_READOUT: pIC50
Numbers only, as −log10 of the molar value.

Inquiry: Value lookup for pIC50; key = NCc1ncc(S(=O)(=O)c2cc(C(=O)N3CCC(O)C3)cc(-c3ccccc3)c2)s1 (stereo not shown) [Example 149, Dihydrochloride]
Reply text: 6.59

---

Consider the following molecules; for each one, report its IC50.
molecular target: UniProt:P21397
Sequence (P21397 whole entry): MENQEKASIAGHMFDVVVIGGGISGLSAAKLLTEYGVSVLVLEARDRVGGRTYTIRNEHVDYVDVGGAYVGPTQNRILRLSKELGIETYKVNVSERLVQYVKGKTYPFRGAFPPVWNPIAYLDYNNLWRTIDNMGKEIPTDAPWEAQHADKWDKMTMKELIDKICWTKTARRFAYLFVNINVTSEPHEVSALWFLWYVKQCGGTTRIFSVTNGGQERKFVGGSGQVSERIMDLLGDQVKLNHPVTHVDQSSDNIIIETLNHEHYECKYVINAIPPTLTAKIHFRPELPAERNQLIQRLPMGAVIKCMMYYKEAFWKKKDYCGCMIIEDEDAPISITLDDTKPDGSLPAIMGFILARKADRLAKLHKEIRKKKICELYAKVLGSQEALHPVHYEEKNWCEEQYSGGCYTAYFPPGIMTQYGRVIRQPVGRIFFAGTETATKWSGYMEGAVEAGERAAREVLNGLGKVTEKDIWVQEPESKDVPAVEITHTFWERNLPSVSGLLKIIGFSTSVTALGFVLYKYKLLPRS
Counter-ions that a name gives are not always drawn.

CN(C)C(=O)c1cc(-c2ccccc2)cc(S(=O)(=O)c2cnc(CN)s2)c1 [Example 125, Dihydrochloride]	> 100 µM
Cn1cc(-c2cc(F)cc(S(=O)(=O)c3cnc(CN)s3)c2)cn1 [Example 131, Trihydrochloride]	> 100 µM
NCc1ncc(S(=O)(=O)c2cc(C(=O)O)cc(-c3ccccc3)c2)s1 [Example 126, Ditrifluoroacetate]	> 100 µM

Now examine the next entry.
Inquiry: Quick one: IC50 for Cn1cc(-c2cc(C(=O)O)cc(S(=O)(=O)c3cnc(CN)s3)c2)cn1 [Example 150, Trihydrochloride] ?
Reply text: > 100 µM
